Here we list compounds with their recorded Kd when tested on S100A16 (Homo sapiens).
Sequence (Q96FQ6 whole entry): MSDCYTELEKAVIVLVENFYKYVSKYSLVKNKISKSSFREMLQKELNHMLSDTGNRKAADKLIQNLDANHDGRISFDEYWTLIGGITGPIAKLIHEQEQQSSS

COMPOUND_SMILES	ASSAY_METRIC	RESULT
N=C(N)NCCC[C@@H](CC(=O)N[C@H]1CCCC[C@@H]1C(=O)NCC(=O)N[C@@H](CCCCNC(=O)c1ccc2c(c1)C1(OC2=O)c2ccc(O)cc2Oc2cc(O)ccc21)C(N)=O)NC(=O)[C@H]1CCCC[C@@H]1NC(=O)[C@H]1CCCC[C@@H]1NC(=O)C[C@H](CCCNC(=N)N)NC(=O)[C@H]1CCCC[C@@H]1N	Kd	> 1000 µM

Lab note: next compound to report on.
Field: Kd (S100A16 (Homo sapiens)). Entry: N=C(N)NCCC[C@@H](CC(=O)N[C@H]1CCCC[C@@H]1C(=O)N[C@H]1CCCC[C@@H]1C(=O)N[C@H](CC(=O)N[C@H]1CCCC[C@@H]1C(=O)NCC(=O)N[C@@H](CCCCNC(=O)c1ccc2c(c1)C1(OC2=O)c2ccc(O)cc2Oc2cc(O)ccc21)C(N)=O)Cc1ccccc1)NC(=O)[C@H]1CCCC[C@@H]1N
> 1000 µM
